- Tested on: Plasmodium falciparum
- testDetails: Antimalarial activity against early stage Plasmodium falciparum gametocytes by luciferase reporter gene assay
- Assay type: functional, organism-based
pEC50: −log10 of the molar value.

- molecularString: "CS(=O)(=O)c1ccc(-c2cnc(N)c(-c3ccc(C(F)(F)F)nc3)c2)cc1"
  pEC50: 6.67

====

- testDetails: Cmax in Beagle dog at 3 mg/kg, po by LC-MS/MS analysis
- Assay type: ADME, organism-based, Canis lupus familiaris
- Set-up: dose 3 mg/kg, route oral
- conditionsUsed: in vivo
recordedMetric: Cmax

- molecularString: "C[C@H]1Cc2c([nH]c3cc(Cl)c(F)cc23)[C@@]2(N1)C(=O)Nc1ccc(Cl)cc12"
  recordedMetric: "Cmax"
  measuredValue: "868 ng/mL"
